Values compiled from ChEMBL document CHEMBL4257579.

# EXPERIMENTAL_TARGET: Histamine H1 receptor (Homo sapiens, UniProt P35367)
# Sequence (P35367 whole entry): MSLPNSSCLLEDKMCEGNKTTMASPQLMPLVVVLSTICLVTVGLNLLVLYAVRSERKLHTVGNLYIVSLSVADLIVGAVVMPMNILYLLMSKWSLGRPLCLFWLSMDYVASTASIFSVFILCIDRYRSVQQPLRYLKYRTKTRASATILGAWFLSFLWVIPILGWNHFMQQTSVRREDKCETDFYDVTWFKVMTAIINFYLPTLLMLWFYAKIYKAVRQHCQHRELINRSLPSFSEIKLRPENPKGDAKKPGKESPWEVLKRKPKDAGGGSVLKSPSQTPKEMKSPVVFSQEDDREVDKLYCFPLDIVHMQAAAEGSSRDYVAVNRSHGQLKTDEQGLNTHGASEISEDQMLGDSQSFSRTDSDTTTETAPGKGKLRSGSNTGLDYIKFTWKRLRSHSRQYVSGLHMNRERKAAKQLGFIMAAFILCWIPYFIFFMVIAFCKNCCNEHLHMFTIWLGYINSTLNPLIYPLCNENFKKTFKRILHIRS
# ASSAY_DETAILS: Displacement of [3H]Pyrilamine from human H1 receptor expressed in HEK cells by radioligand binding assay
# Assay type: cell-based
# CONDITIONS: read-out: Ki
MEASURED_PARAMETER: Ki (nM)
All answers are understood in nM, so give the number only.

OC1(c2ccc(Cl)c(C(F)(F)F)c2)CCN(CCCCCc2ccc(F)cc2)CC1 ... 718
OC1(c2ccc(Cl)c(C(F)(F)F)c2)CCN(CCCN(c2ccc(F)cc2)c2ccc(F)cc2)CC1 ... 814
OC1(c2ccc(Cl)c(C(F)(F)F)c2)CCN(CCCC=C(c2ccc(F)cc2)c2ccc(F)cc2)CC1 ... 718

The record that follows has no Ki shown yet.
Per the record, COc1ccc(N(CCCCN2CCC(O)(c3ccc(Cl)c(C(F)(F)F)c3)CC2)c2ccc(OC)cc2)cc1 has Ki of 7030

* * *

# EXPERIMENTAL_TARGET: D(4) dopamine receptor (Homo sapiens)
# Sequence (P21917 whole entry): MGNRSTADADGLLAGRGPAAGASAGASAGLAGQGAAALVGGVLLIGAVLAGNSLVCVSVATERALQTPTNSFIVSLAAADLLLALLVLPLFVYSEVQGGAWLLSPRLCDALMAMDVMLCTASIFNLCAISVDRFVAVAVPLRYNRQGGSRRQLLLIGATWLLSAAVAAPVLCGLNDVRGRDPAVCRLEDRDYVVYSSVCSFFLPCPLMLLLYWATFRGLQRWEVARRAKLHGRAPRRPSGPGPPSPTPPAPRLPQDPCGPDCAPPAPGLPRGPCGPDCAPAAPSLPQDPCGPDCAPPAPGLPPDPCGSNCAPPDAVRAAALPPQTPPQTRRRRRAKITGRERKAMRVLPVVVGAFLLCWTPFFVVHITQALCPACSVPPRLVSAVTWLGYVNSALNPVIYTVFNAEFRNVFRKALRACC
pKi: −log10 of the molar value.
Short version: pKi at least 6 is Condition met, less is Condition not met.

Observe how each entry below is paired with its result.
OC1(c2ccc(Cl)c(C(F)(F)F)c2)CCN(CCCC=C(c2ccc(F)cc2)c2ccc(F)cc2)CC1 ... Condition not met
OC1(c2ccc(Cl)c(C(F)(F)F)c2)CCN(CCCCN(c2ccc(F)cc2)c2ccc(F)cc2)CC1 ... Condition not met
OC1(c2ccc(Cl)c(C(F)(F)F)c2)CCN(CCCCCc2ccc(F)cc2)CC1 ... Condition met
OC1(c2ccc(Cl)c(C(F)(F)F)c2)CCN(CCCC(c2ccccc2)c2ccccc2)CC1 ... Condition met
OC1(c2ccc(Cl)c(C(F)(F)F)c2)CCN(CCCCC(c2ccc(F)cc2)c2ccc(F)cc2)CC1 ... Condition met
COc1ccc(N(CCCCN2CCC(O)(c3ccc(Cl)c(C(F)(F)F)c3)CC2)c2ccc(OC)cc2)cc1 ... Condition met

Could you now look at the following compound, please?
Challenge: Quick check: does OC1(c2ccc(Cl)c(C(F)(F)F)c2)CCN(CCCN(c2ccc(F)cc2)c2ccc(F)cc2)CC1 have pKi greater than or equal to 6?
Response given: Condition met

* * *

# EXPERIMENTAL_TARGET: 5-hydroxytryptamine receptor 1D (Homo sapiens)
# Sequence (P28221 whole entry): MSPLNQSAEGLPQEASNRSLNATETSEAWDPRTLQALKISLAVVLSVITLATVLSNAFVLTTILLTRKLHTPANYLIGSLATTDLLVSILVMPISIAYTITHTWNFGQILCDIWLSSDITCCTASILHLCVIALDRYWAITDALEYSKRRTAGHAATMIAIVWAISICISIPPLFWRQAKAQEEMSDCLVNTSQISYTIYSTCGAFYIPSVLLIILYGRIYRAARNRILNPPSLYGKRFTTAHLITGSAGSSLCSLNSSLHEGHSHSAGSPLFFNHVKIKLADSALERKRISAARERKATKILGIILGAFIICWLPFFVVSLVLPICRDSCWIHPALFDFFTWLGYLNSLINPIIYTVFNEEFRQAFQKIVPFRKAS
# ASSAY_DETAILS: Displacement of [3H]5-CT from human 5-HT1D receptor expressed in HEK293T cells by radioligand binding assay
# Type: cell-based
# CONDITIONS: read-out: Ki
Each record here notes measured Ki.
All answers are understood in nM, so give the number only.

OC1(c2ccc(Cl)c(C(F)(F)F)c2)CCN(CCCCC(c2ccc(F)cc2)c2ccc(F)cc2)CC1 ... 844
OC1(c2ccc(Cl)c(C(F)(F)F)c2)CCN(CCCC(c2ccccc2)c2ccccc2)CC1 ... 628
OC1(c2ccc(Cl)c(C(F)(F)F)c2)CCN(CCCC(c2ccc(F)cc2)c2ccc(F)cc2)CC1 ... 3560
OC1(c2ccc(Cl)c(C(F)(F)F)c2)CCN(CCCCN(c2ccc(F)cc2)c2ccc(F)cc2)CC1 ... 1070
OC1(c2ccc(Cl)c(C(F)(F)F)c2)CCN(CCCCCc2ccc(F)cc2)CC1 ... 4430

Per the record, COc1ccc(N(CCCCN2CCC(O)(c3ccc(Cl)c(C(F)(F)F)c3)CC2)c2ccc(OC)cc2)cc1 has Ki of 10000

Per the record, OC1(c2ccc(Cl)c(C(F)(F)F)c2)CCN(CCCN(c2ccc(F)cc2)c2ccc(F)cc2)CC1 has Ki of 752
